# measurementTarget: glycine binding pocket of the NMDA receptor (Rattus norvegicus, UniProt P35439)
# Construct: For isolation of the cell membranes, the cortices are homogenized; from tissue; host or cells: rat cerebral cortex membranes (male Sprague-Dawley)
# assayExplanation: [3H]MDL-105,519 displacement studies (rat cortical membranes)
# particulars: displacement of 2 nM [3H]-MDL-105,519, rat cortical membranes; read-out: NMDA-MDL 105519-r-CTX - IC50
pIC50: −log10 of the molar value.
outcomeMeasure: pIC50

{"molecule": "O=C(O)Cc1ccc(NC(=O)COc2cc(C(=O)O)cc3cc(Cl)cc(Cl)c23)cn1 [Example 46]", "experimentalResult": 5.91}

I: O=C(COc1cc(C(=O)O)cc2cc(Cl)cc(Cl)c12)NCc1ccccc1OC(F)(F)F [Example 61]
II: O=C(COc1cc(C(=O)O)cc2cc(Cl)cc(Cl)c12)Nc1ccccc1CO [Example 5]
**Query** Which record would sort first by descending pIC50, I or II ? Please respond with the label that marks your chosen entry.
**Result** II

---

melting point values for the compounds below.
Where a name gives a salt, the structure may show the parent alone.

**Query** Field request: melting point | item: NC(=O)c1cccc(NC(=O)COc2cc(C(=O)O)cc3cc(Cl)cc(Cl)c23)c1 [Example 113]
**Result** > 250 °C

**Query** Field request: melting point | item: N#Cc1ccccc1NC(=O)COc1cc(C(=O)O)cc2cc(Cl)cc(Cl)c12 [Example 82]
**Result** > 250 °C

**Query** Field request: melting point | item: O=C(COc1ccccc1NC(=O)COc1cc(C(=O)O)cc2cc(Cl)cc(Cl)c12)NCCO [Example 134]
**Result** 217 to 218 °C

**Query** Field request: melting point | item: CNC(=O)COc1cc(CN)ccc1NC(=O)COc1cc(C(=O)O)cc2cc(Cl)cc(Cl)c12 (as salt: hydrochloride) [Example 116]
**Result** 233 to 235 °C

**Query** Field request: melting point | item: O=C(O)CCc1cccc(NC(=O)COc2cc(C(=O)O)cc3cc(Cl)cc(Cl)c23)c1 [Example 96]
**Result** > 230 °C (dec.)

**Query** Field request: melting point | item: NCc1cc(OCC(=O)O)ccc1NC(=O)COc1cc(C(=O)O)cc2cc(Cl)cc(Cl)c12 (as salt: trifluoroacetate) [Example 97]
**Result** > 169 °C

**Query** Field request: melting point | item: O=C(COc1cc(C(=O)O)cc2cc(Cl)cc(Cl)c12)Nc1cccc(OCc2nnn[nH]2)c1OCc1nnn[nH]1 [Example 128]
**Result** 246 to 247 °C

**Query** Field request: melting point | item: N#CCc1ccccc1NC(=O)COc1cc(C(=O)O)cc2cc(Cl)cc(Cl)c12 [Example 137]
**Result** 246 to 247 °C

**Query** Field request: melting point | item: NC(=O)c1[nH]cnc1NC(=O)COc1cc(C(=O)O)cc2cc(Cl)cc(Cl)c12 [Example 136]
**Result** > 250 °C

**Query** Field request: melting point | item: O=C(COc1cc(C(=O)O)cc2cc(Cl)cc(Cl)c12)NCc1ccc(Cc2nnn[nH]2)cc1 [Example 120]
**Result** 247 to 248 °C

**Query** Field request: melting point | item: O=C(COc1cc(C(=O)O)cc2cc(Cl)cc(Cl)c12)NCc1ccccc1Cc1nnn[nH]1 [Example 118]
**Result** 239 to 240 °C

**Query** Field request: melting point | item: O=C(O)COc1ccc(NC(=O)COc2cc(C(=O)O)cc3cc(Cl)cc(Cl)c23)c(OCC(=O)O)c1 [Example 83]
**Result** > 220 °C (dec.)

**Query** Field request: melting point | item: O=C(COc1cc(C(=O)O)cc2cc(Cl)cc(Cl)c12)Nc1ccccc1-c1nnn[nH]1 [Example 85]
**Result** 247 to 248 °C
